The following compounds are shown together with reported IC50 values.
TARGET_UNDER_TEST: Transient receptor potential cation channel subfamily A member 1 (Homo sapiens)
Sequence (O75762 whole entry): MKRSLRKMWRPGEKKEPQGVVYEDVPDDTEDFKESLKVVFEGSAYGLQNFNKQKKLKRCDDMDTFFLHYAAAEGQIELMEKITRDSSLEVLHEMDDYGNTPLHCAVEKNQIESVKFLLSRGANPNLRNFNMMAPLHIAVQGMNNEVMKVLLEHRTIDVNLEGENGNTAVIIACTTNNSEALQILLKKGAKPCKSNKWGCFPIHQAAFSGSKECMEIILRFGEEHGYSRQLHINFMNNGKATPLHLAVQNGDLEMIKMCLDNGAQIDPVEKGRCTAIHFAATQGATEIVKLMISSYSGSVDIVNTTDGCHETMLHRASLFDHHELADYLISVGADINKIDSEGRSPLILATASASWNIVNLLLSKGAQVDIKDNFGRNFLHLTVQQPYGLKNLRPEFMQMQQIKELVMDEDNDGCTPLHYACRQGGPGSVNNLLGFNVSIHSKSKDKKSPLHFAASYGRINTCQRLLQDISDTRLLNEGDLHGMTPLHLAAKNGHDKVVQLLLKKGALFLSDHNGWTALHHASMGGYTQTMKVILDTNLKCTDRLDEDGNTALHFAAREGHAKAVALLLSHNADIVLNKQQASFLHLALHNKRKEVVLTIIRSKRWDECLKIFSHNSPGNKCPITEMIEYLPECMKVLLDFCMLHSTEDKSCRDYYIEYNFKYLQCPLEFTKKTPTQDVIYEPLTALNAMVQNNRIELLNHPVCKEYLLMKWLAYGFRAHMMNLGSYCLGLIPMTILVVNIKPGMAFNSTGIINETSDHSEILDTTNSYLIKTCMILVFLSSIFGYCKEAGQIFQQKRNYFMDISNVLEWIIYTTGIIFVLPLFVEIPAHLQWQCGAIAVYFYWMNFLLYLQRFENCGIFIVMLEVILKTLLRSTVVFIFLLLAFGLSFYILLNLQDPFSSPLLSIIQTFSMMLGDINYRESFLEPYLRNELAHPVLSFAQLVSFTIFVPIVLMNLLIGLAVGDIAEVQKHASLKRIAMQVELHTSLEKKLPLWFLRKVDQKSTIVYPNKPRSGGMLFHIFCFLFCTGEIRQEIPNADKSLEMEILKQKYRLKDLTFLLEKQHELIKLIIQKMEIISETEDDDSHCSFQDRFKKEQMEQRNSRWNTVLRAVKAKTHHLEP
TEST_METHOD_NOTES: Antagonist activity at human TRPA1 assessed as inhibition of AITC-induced calcium uptake by [45Ca2+] fluorimetry assay
ENDPOINT_LABEL: IC50 (µM)

[[record]]
compound = "O=C1C2=C(NC(=S)NC2c2cccc(OCc3cccnc3)c2)c2ccccc21 (stereo not drawn)"
target_under_test = "Transient receptor potential cation channel subfamily A member 1 (Homo sapiens)"
endpoint_label = "IC50"
result_operator = "="
numeric_value = 0.71

[[record]]
compound = "COCCCOc1ccnc(C2NC(=S)NC3=C2C(=O)c2ccccc23)c1 (stereo not drawn)"
target_under_test = "Transient receptor potential cation channel subfamily A member 1 (Homo sapiens)"
endpoint_label = "IC50"
result_operator = ">"
numeric_value = 2

[[record]]
compound = "COCCCOc1cncc(C2NC(=S)NC3=C2C(=O)c2ccccc23)c1 (stereo not drawn)"
target_under_test = "Transient receptor potential cation channel subfamily A member 1 (Homo sapiens)"
endpoint_label = "IC50"
result_operator = "="
numeric_value = 1.2

[[record]]
compound = "COCCCOc1cc(C2NC(=S)NC3=C2C(=O)c2ccccc23)ccn1 (stereo not drawn)"
target_under_test = "Transient receptor potential cation channel subfamily A member 1 (Homo sapiens)"
endpoint_label = "IC50"
result_operator = ">"
numeric_value = 40

[[record]]
compound = "S=C1Nc2c(oc3ncccc23)C(c2cccc(OCc3cccnc3)c2)N1 (stereo not drawn)"
target_under_test = "Transient receptor potential cation channel subfamily A member 1 (Homo sapiens)"
endpoint_label = "IC50"
result_operator = "="
numeric_value = 0.94

[[record]]
compound = "COCCCOc1cccc(C2NC(=S)Nc3c2oc2c(F)cccc32)c1 (stereo not drawn)"
target_under_test = "Transient receptor potential cation channel subfamily A member 1 (Homo sapiens)"
endpoint_label = "IC50"
result_operator = "="
numeric_value = 0.2

[[record]]
compound = "COCCCOc1cccc([C@@H]2NC(=S)Nc3c2oc2ncccc32)c1"
target_under_test = "Transient receptor potential cation channel subfamily A member 1 (Homo sapiens)"
endpoint_label = "IC50"
result_operator = ">"
numeric_value = 40

[[record]]
compound = "COCCCOc1cccc([C@H]2NC(=S)Nc3c2oc2ccccc32)c1"
target_under_test = "Transient receptor potential cation channel subfamily A member 1 (Homo sapiens)"
endpoint_label = "IC50"
result_operator = "="
numeric_value = 0.59

[[record]]
compound = "COCCCOc1cccc(C2NC(=S)NC3=C2C(=O)c2ccccc23)n1 (stereo not drawn)"
target_under_test = "Transient receptor potential cation channel subfamily A member 1 (Homo sapiens)"
endpoint_label = "IC50"
result_operator = "="
numeric_value = 0.97

[[record]]
compound = "COCCCOc1cccc([C@H]2NC(=S)NC3=C2C(=O)c2ccccc23)c1"
target_under_test = "Transient receptor potential cation channel subfamily A member 1 (Homo sapiens)"
endpoint_label = "IC50"
result_operator = "="
numeric_value = 0.026

[[record]]
compound = "COCCCOc1cccc([C@H]2NC(=S)Nc3c2oc2ncccc32)c1"
target_under_test = "Transient receptor potential cation channel subfamily A member 1 (Homo sapiens)"
endpoint_label = "IC50"
result_operator = "="
numeric_value = 0.17

[[record]]
compound = "COCCCOc1cccc(C2NC(=S)NC3=C2C(=O)c2ccccc23)c1 (racemic)"
target_under_test = "Transient receptor potential cation channel subfamily A member 1 (Homo sapiens)"
endpoint_label = "IC50"
result_operator = "="
numeric_value = 0.03

[[record]]
compound = "O=C1C2=C(NC(=S)NC2c2cccc(OCc3ccccn3)c2)c2ccccc21 (stereo not drawn)"
target_under_test = "Transient receptor potential cation channel subfamily A member 1 (Homo sapiens)"
endpoint_label = "IC50"
result_operator = "="
numeric_value = 0.3


The measured values listed here are drawn from ChEMBL document CHEMBL3352604.
